Experiment: Extraction of aqueous bioproduct solutions with 1-butene in a pressure vessel (distribution coefficient)
Type: physicochemical
Settings: 100 g aqueous solution, 2% initial bioproduct, mixed with 100 g 1-butene; raffinate phase
Reported Raffinate Bioproduct conc. (%) values for a set of molecules
readout: Raffinate Bioproduct conc. (%)

molecule | observed_measurement
CCCC=O [Butanal] | 0.26
O=C(O)CCC(=O)O [Succinic Acid] | 1.77
CCCC(C)=O [Example 2-Pentanone, 2-Pentanone] | 0.23
O=C(O)CCCC(=O)O [Glutaric Acid] | 1.51
CCC(=O)O [Propionic Acid] | 1.00
O=Cc1ccco1 [Furfural] | 0.47
CCCC(=O)OC [Methyl Butyrate] | 0.038
O=C1CCCO1 [Gamma Butyrolactone] | 0.43
